The reported numbers originate from patent US20110311550A1.

- measurement target: HCV E1E2 antigen, isolate UKN2B1.1 (hepatitis C virus, isolate UKN2B1.1)
- experimental details: ELISA, Fab on E1E2 antigen
What OD 450 nm was measured for each of the following?
One number for each entry, in OD 450 nm.

[[record]]
binder = "Fab V1 (Fab, V domains shown) VH: VQLLEQSGAEVQKPGASVKVSCKPSGYIFTNFGISWVRQAPGQGLEWMAWINTYNGKTTYAQSLQGRVTLTTDPYTNTVFMELRSLRSDDTAVYYCARENEGEYVWGHFRSDYWGQGTLVTVSS VL: ELTQSPSSLSASVGDRVTITCQASQDISNFLNWYQRRPGKAPNLLIYDATHLETGVPSRFSGSGFGTHFTLTINSLQPEDIGTYYCQHFDDVPSFTFGPGTKVDLKR"
reported_endpoint = "OD 450 nm"
observed_result = 0.3


For the 4 binders below, give their OD 450 nm values.
1. Fab O1 (Fab, V domains shown) VH: VQLLEQSGAEVKKAGESVRLSCKASGYRFGDYWIAWVRQLPGRAPEWMGIIYPDDSDTKYSPSFQGQVTISADKSIRTTFLDWGSLKASDTAIYYCARGCLGAKCYYPHYYYGLDVWGQGTTVIVSS VL: ELTQSPSSLSASVGDRVTITCRATQGIDNYLNWYQQKPGKPPRLLIYGASSLQSGVPSRFSGGGSGTHFTLTITNLQPEDFATYYCQQSYSTPPETFGQGTKVEIKR
2. Fab Q2 (Fab, V domains shown) VH: VQLLEQSGAEVKKPGASVKVSCKASGYTFTNNGLNWVRQAPGQGLEWMGWISPYNGDTDFAHKFQGRISMTTDTSTNTAYMELRSLRSDDTAVYYCARDRNSAGGTWLFRDPPPGSTFFDSWGQGSLVTVSS VL: ELTQSPASLSLSPGGSATLACRASRGVNSNLAWYHQKPGQAPRLLIYSASTRATGIPGRFSGSGFGTEFTLTINNLQSDDFGVYYCQQYDDTPQITFGQGTRLDIKR
3. Fab P1 (Fab, V domains shown) VH: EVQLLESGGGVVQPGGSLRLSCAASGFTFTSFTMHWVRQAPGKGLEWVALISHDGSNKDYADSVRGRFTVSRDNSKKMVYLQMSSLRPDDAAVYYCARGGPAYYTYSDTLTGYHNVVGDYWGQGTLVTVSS VL: ELTQSPGTLSLSPGERATLSCRASQVRGFLAWFQQKPGQAPRLLIYGASNRAPGIPDRFSGSGSGTDFTLTISRLEPEDFAVYYCQQYGDSPPITFGQGTRLEIKR
4. Fab N4 (Fab, V domains shown) VH: VQLLEQSGPEVKKPGDSLRISCKMSGDSLVTTWIGWVRQKPGQGLEWMGIINPGDSSTNIYPGDSATRYGPSFQGQVTISIDKSTSTAYLQWNNVKASDTGIYYCARHVPVPISGTFLWREREMHDFGYFDDWGQGTLVIVSS VL: ELTLTQSPGTLSLSPGERATLSCRASQSVSNNYLAWYQQKPGQAPRLLIYGASSRATGIPDRFSGSGSGTGFTLIISRLEPEDFAVYYCQQYGSSSITFGQGTRLEIKR

0.02
0.15
0.03
0.48
